Data provenance is patent US20250002471A1.

target.of.assay: TLR9 (Homo sapiens, UniProt Q9NR96)
Construct: lymphocytes, monocytes and dendritic cells that express TLR7, TLR8 and TLR9; endogenous in cells; host or cells: human PBMCs from healthy donors
Sequence (Q9NR96 26-1032): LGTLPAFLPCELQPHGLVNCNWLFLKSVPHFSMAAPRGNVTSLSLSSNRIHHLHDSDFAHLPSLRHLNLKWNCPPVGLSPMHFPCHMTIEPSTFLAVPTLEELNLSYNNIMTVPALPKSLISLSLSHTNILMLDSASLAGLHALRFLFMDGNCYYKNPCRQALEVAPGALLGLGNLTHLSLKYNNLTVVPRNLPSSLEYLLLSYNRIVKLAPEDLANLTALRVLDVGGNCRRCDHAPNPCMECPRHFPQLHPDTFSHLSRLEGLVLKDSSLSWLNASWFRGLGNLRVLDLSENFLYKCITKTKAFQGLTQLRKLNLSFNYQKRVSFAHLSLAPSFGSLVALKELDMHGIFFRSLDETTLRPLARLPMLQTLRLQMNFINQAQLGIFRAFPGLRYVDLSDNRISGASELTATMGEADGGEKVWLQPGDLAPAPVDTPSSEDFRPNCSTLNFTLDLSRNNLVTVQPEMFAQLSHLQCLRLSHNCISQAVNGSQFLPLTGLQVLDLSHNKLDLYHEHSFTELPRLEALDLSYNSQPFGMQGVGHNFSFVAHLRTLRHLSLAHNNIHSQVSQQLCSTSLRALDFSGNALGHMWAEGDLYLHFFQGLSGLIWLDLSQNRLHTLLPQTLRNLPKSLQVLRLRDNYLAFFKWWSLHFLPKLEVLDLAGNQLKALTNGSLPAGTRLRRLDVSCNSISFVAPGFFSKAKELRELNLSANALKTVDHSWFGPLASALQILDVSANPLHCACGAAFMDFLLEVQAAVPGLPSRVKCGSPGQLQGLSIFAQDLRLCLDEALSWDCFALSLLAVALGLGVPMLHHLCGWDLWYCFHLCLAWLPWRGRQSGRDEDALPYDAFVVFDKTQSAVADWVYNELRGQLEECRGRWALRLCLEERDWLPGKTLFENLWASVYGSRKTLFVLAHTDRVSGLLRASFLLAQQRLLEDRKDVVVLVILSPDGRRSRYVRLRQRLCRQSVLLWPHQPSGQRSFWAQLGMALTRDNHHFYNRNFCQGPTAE
method.summary: Human PBMC cell-based assay, TLR9 agonist ODN-2216 stimulation, cytokine (IL-6 and IFNα) readout
run.parameters: human PBMCs, ODN-2216 3 μM, 6 hours; Table 26; read-out: TLR-9 EC50
test.readout: log10 EC50 (log10 of the value in nM)

{"compound": "Cc1cc(-c2[nH]c3cc(-c4cnn(CC5CCNCC5)c4)ccc3c2C)cc(C)n1", "target.of.assay": "TLR9 (Homo sapiens, UniProt Q9NR96)", "log10 EC50": 2.89}
{"compound": "Cc1cc(-c2[nH]c3nc(C4CCNCC4)ccc3c2C)cc(C)n1", "target.of.assay": "TLR9 (Homo sapiens, UniProt Q9NR96)", "log10 EC50": 2.25}
{"compound": "Cc1cc(-c2[nH]c3cc(C4CCCNC4)ccc3c2C)cc(C)n1 (centres unmarked)", "target.of.assay": "TLR9 (Homo sapiens, UniProt Q9NR96)", "log10 EC50": 2.26}
{"compound": "Cc1cc(-c2[nH]c3cc(-c4ccc(N5CCN(C(=O)[C@@H]6CCNC6)CC5)nc4)ccc3c2C)cc(C)n1", "target.of.assay": "TLR9 (Homo sapiens, UniProt Q9NR96)", "log10 EC50": 2.31}
{"compound": "Cc1cc(-c2[nH]c3cc(-c4ccc(N5C[C@H]6CC[C@@H](C5)[C@H]6N)nc4)ccc3c2C)cc(C)n1", "target.of.assay": "TLR9 (Homo sapiens, UniProt Q9NR96)", "log10 EC50": 1.74}
{"compound": "Cc1cc(-c2[nH]c3cc(-c4ccc(N5CCNC6(CC6)C5)nc4)ccc3c2C)cc(C)n1", "target.of.assay": "TLR9 (Homo sapiens, UniProt Q9NR96)", "log10 EC50": 2.18}
{"compound": "Cc1cc(-c2[nH]c3cc(-c4ccc(N5CCNCC5)nc4)ccc3c2C2CC2)cn(C)c1=O", "target.of.assay": "TLR9 (Homo sapiens, UniProt Q9NR96)", "log10 EC50": 2.27}
{"compound": "Cc1c(-c2cnn3c2CCC3)[nH]c2cc(-c3ccc(N4CCNCC4)nc3)ccc12", "target.of.assay": "TLR9 (Homo sapiens, UniProt Q9NR96)", "log10 EC50": 2.63}
{"compound": "Cc1cc(-c2[nH]c3cc(-c4ccc(N5CCN(C6COC6)CC5)nc4)ccc3c2C)cc(C)n1", "target.of.assay": "TLR9 (Homo sapiens, UniProt Q9NR96)", "log10 EC50": 2.58}
{"compound": "CCc1c(-c2cc(C)nc(C)c2)[nH]c2cc(-c3ccc(N4CCNCC4)nc3)ccc12", "target.of.assay": "TLR9 (Homo sapiens, UniProt Q9NR96)", "log10 EC50": 2.27}
{"compound": "CNC(=O)CN1CCN(c2ccc(-c3ccc4c(C)c(-c5cc(C)nc(C)c5)[nH]c4c3)cn2)CC1", "target.of.assay": "TLR9 (Homo sapiens, UniProt Q9NR96)", "log10 EC50": 2.09}
{"compound": "Cc1nn(C)cc1-c1[nH]c2cc(-c3ccc(N4CCNCC4)nc3)ccc2c1C", "target.of.assay": "TLR9 (Homo sapiens, UniProt Q9NR96)", "log10 EC50": 3.34}
{"compound": "CC(=O)c1c(-c2cc(C)nc(C)c2)[nH]c2cc(-c3ccc(N4CCNCC4)nc3)ccc12", "target.of.assay": "TLR9 (Homo sapiens, UniProt Q9NR96)", "log10 EC50": 2.34}
{"compound": "Cc1cc(-c2[nH]c3cc(-c4ccc(N5CCNCC5)nc4)ccc3c2C#N)cc(C)n1", "target.of.assay": "TLR9 (Homo sapiens, UniProt Q9NR96)", "log10 EC50": 2.50}
{"compound": "Cc1cc(-c2[nH]c3cc(-c4cnc(N5CCNCC5)c(C)c4)ccc3c2C)cc(C)n1", "target.of.assay": "TLR9 (Homo sapiens, UniProt Q9NR96)", "log10 EC50": 1.75}
{"compound": "Cc1cc(-c2[nH]c3cc(-c4cnn(C5CC6CCC(C5)N6)c4)ccc3c2C)cc(C)n1 (centres unmarked)", "target.of.assay": "TLR9 (Homo sapiens, UniProt Q9NR96)", "log10 EC50": 2.43}
{"compound": "Cc1cc(-c2[nH]c3cc(-c4cnc5c(c4)CCNC5)ccc3c2C)cc(C)n1", "target.of.assay": "TLR9 (Homo sapiens, UniProt Q9NR96)", "log10 EC50": 1.55}
{"compound": "Cc1cc(-c2[nH]c3cc(-c4nc(N5CCNCC5)no4)ccc3c2C)cc(C)n1", "target.of.assay": "TLR9 (Homo sapiens, UniProt Q9NR96)", "log10 EC50": 2.24}
{"compound": "CNCCN(C)c1ccc(-c2ccc3c(C)c(-c4cc(C)nc(C)c4)[nH]c3c2)cn1", "target.of.assay": "TLR9 (Homo sapiens, UniProt Q9NR96)", "log10 EC50": 1.75}
{"compound": "Cc1c(-c2cnc(C(F)(F)F)nc2)[nH]c2cc(-c3ccc(N4CCNCC4)nc3)ccc12", "target.of.assay": "TLR9 (Homo sapiens, UniProt Q9NR96)", "log10 EC50": 2.88}
{"compound": "Cc1cc(-c2[nH]c3cc(-c4ccc(N5CCNCC5)nc4)ccc3c2C)cc(C)n1", "target.of.assay": "TLR9 (Homo sapiens, UniProt Q9NR96)", "log10 EC50": 1.72}
{"compound": "Cc1cc(-c2[nH]c3cc(-c4ccc5c(c4)CCCN5)ccc3c2C)cc(C)n1", "target.of.assay": "TLR9 (Homo sapiens, UniProt Q9NR96)", "log10 EC50": 3.13}
{"compound": "Cc1c(-c2cnn(C)c2)[nH]c2cc(-c3ccc(N4CCNCC4)nc3)ccc12", "target.of.assay": "TLR9 (Homo sapiens, UniProt Q9NR96)", "log10 EC50": 2.77}
{"compound": "Cc1cc(-c2[nH]c3cc(-c4ccc5nc([C@@H]6CCCNC6)[nH]c5c4)ccc3c2C)cc(C)n1", "target.of.assay": "TLR9 (Homo sapiens, UniProt Q9NR96)", "log10 EC50": 2.75}
{"compound": "Cc1c(-c2ccc(=O)n(C)c2)[nH]c2cc(-c3ccc(N4CCNCC4)nc3)ccc12", "target.of.assay": "TLR9 (Homo sapiens, UniProt Q9NR96)", "log10 EC50": 2.46}
{"compound": "Cc1cc(-c2[nH]c3cc(-c4ccc(N5CCCNCC5)nc4)ccc3c2C)cc(C)n1", "target.of.assay": "TLR9 (Homo sapiens, UniProt Q9NR96)", "log10 EC50": 1.66}
{"compound": "Cc1cc(-c2[nH]c3cc(-c4ccnc(N5CCOCC5)c4)ccc3c2C)cc(C)n1", "target.of.assay": "TLR9 (Homo sapiens, UniProt Q9NR96)", "log10 EC50": 3.25}
{"compound": "Cc1cc(-c2[nH]c3cc(-c4ccc(N5CCN(C(=O)[C@@H]6CNCCO6)CC5)nc4)ccc3c2C)cc(C)n1", "target.of.assay": "TLR9 (Homo sapiens, UniProt Q9NR96)", "log10 EC50": 2.06}
{"compound": "Cc1cc(-c2[nH]c3cc(C#CC4CCNCC4)ccc3c2C)cc(C)n1", "target.of.assay": "TLR9 (Homo sapiens, UniProt Q9NR96)", "log10 EC50": 2.00}
{"compound": "Cc1cc(-c2[nH]c3cc(-c4ccc5c(n4)CCNC5)ccc3c2C)cc(C)n1", "target.of.assay": "TLR9 (Homo sapiens, UniProt Q9NR96)", "log10 EC50": 1.67}
{"compound": "Cc1c(-c2cc(C#N)c(=O)n(C)c2)[nH]c2cc(-c3ccc(N4CCNCC4)nc3)ccc12", "target.of.assay": "TLR9 (Homo sapiens, UniProt Q9NR96)", "log10 EC50": 2.96}
{"compound": "Cc1cc(-c2[nH]c3cc(-c4cnn(C5CCNC5)c4)ccc3c2C)cc(C)n1 (centres unmarked)", "target.of.assay": "TLR9 (Homo sapiens, UniProt Q9NR96)", "log10 EC50": 1.87}

* * *

target.of.assay: TLR8 (Homo sapiens)
Construct: lymphocytes, monocytes and dendritic cells that express TLR7, TLR8 and TLR9; endogenous in cells
Sequence (Q9NR97 27-1041): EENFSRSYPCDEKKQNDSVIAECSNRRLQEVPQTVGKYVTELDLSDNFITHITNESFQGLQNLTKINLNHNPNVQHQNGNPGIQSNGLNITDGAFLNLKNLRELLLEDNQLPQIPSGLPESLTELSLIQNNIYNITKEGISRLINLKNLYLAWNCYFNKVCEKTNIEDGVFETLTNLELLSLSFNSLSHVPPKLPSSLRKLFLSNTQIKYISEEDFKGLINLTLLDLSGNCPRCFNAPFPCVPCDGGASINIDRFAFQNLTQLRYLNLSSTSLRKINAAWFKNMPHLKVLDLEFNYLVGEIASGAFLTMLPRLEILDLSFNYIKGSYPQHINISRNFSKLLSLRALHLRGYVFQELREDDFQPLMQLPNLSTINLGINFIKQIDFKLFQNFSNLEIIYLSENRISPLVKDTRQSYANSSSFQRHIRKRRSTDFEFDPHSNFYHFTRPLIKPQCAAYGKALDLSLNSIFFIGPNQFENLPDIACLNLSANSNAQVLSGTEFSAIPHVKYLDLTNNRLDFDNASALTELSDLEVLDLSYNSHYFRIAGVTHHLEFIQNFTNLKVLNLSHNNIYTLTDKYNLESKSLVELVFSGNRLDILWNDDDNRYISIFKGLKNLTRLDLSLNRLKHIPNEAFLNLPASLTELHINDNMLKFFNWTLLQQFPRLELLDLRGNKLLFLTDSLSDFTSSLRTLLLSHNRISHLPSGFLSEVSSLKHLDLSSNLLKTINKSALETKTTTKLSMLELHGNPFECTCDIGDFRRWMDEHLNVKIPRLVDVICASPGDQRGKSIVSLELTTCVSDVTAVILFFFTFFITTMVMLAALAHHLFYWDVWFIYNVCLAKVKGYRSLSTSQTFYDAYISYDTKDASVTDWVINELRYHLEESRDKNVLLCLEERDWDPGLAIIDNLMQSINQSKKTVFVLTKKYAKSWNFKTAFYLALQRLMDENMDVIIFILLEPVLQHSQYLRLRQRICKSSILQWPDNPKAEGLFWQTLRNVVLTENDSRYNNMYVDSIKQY
method.summary: TLR8 human PBMC cell-based assay, TLR8 agonist Compound A stimulation, cytokine (TNFa and IL12p40) readout
run.parameters: human PBMCs, Compound A 800 nM, 6 hours; Table 26; read-out: TLR-8 EC50
EC50 under 5 nM gets 1, anything at or over 5 nM gets -1.

{"compound": "Cc1cc(-c2[nH]c3cc(C4CCNCC4)ccc3c2C(C)C)cn2ncnc12 [Example 55]", "assigned.label": -1}
{"compound": "Cc1c(-c2cc(C)c3ncnn3c2)[nH]c2cc(-c3nnc(C4CCNCC4)o3)ccc12 [Example 191]", "assigned.label": -1}
{"compound": "CCc1c(-c2cc(C)c3ncnn3c2)[nH]c2cc(-c3ccc(N4CCNCC4)nc3)ccc12 [Example 167]", "assigned.label": 1}
{"compound": "Cc1c(-c2cc(C)c3ncnn3c2)[nH]c2cc(-c3ccc(N4CCNCC4)nc3)ccc12 [Example 71]", "assigned.label": -1}
{"compound": "CCc1c(-c2cc(C)c3ncnn3c2)[nH]c2cc(-c3ccc(N4CCN(CCO)CC4)nc3)ccc12 [Example 173]", "assigned.label": -1}
{"compound": "Cc1cc(-c2[nH]c3cc(-c4ccc(N5CCNCC5)nc4)ccc3c2C2CC2)cn(C)c1=O [Example 165]", "assigned.label": -1}
{"compound": "Cc1cc(-c2[nH]c3cc(-c4ccc(N5CCNCC5)nc4)ccc3c2C2CC2)cn2ncnc12 [Example 175]", "assigned.label": -1}
{"compound": "CCc1c(-c2cc(OC)c3ncnn3c2)[nH]c2cc(-c3ccc(N4CCNCC4)nc3)ccc12 [Example 169]", "assigned.label": 1}
